Test system: HCT-116
METHOD_DESCRIPTION: NCI tumour cell line growth inhibition, 48 h
Activity calls are given as the source filed them. No stated cut-off is given here; in the data, active = GI50 up to about 1.1 µM and inactive = higher. Peptide text beside a SMILES is read from it. * marks the point of attachment. Boc = CC(C)(C)OC(=O)*
Lab note: assign the record to one of true for active, false for inactive

O=C1Cc2cn[nH]c2-c2ccccc2N1 :: false

**Q:** Short answer needed: outcome of this test for CC(NC(=O)OC(C)(C)C)C(=O)NC(Cc1ccccc1)C(=O)NCC(=O)O (stereo not drawn) (Boc-Ala-Phe-Gly-OH; configuration not given here) ?
**A:** false

**Q:** Short answer needed: outcome of this test for `COC(=O)/C=C\C(C#N)(C#N)/N=C/c1cccs1` ?
**A:** false

**Q:** Short answer needed: outcome of this test for `O=c1c2nc[nH]c2n(-c2ccccc2)c(=S)n1-c1ccccc1` ?
**A:** false

**Q:** Short answer needed: outcome of this test for `CCN1C[C@]2(C)CC[C@H](OC)C34C1C([C@H](OC(C)=O)[C@@H]32)[C@@]1(OC)C[C@H](OC)[C@H]2C[C@@H]4[C@@H]1[C@H]2O` ?
**A:** false

**Q:** Short answer needed: outcome of this test for `O=C1C(=CNc2ccccc2Cl)C(=O)N(c2ccccc2)C(=O)N1c1ccccc1` ?
**A:** false

**Q:** Short answer needed: outcome of this test for `O=C(O)C1=Cc2cccc3cccc(c23)C1=O` ?
**A:** false

**Q:** Short answer needed: outcome of this test for `O=C(O)/C(Cl)=C(Cl)/C=N/NC(=O)c1cc2ccccc2cc1O` ?
**A:** false

**Q:** Short answer needed: outcome of this test for `COc1cc(OCc2nc3ccccc3n3cccc23)cc(OC)c1OC` ?
**A:** false

**Q:** Short answer needed: outcome of this test for COc1ccc(COCC[C@H](C)OC2OC(CO[Si](C)(C)C(C)(C)C)C(OC(=O)CCCN=[N+]=[N-])C(OC(=O)CCCN=[N+]=[N-])C2OC(=O)CCCN=[N+]=[N-])cc1 (some centres undefined) ?
**A:** false

**Q:** Short answer needed: outcome of this test for COc1cc(CC2C(=O)OCC2Cc2ccc(OC)c(OC)c2)ccc1O (centres undefined) ?
**A:** false

**Q:** Short answer needed: outcome of this test for CCOC(=O)C(NCc1ccc2c(c1)OCO2)(NC(=O)c1ccccc1)C(F)(F)F (centres undefined) ?
**A:** false

**Q:** Short answer needed: outcome of this test for CCOC(=O)NC(OCc1ccccc1)(C(=O)OC)C(F)(F)F (centres undefined) ?
**A:** false

**Q:** Short answer needed: outcome of this test for `O=[N+]([O-])c1cccnc1NCC1(CO)CCCC1` ?
**A:** false

**Q:** Short answer needed: outcome of this test for `c1ccc2c(c1)CCc1cc3cc4c(nc3nc1-2)-c1ccccc1CC4` ?
**A:** false

**Q:** Short answer needed: outcome of this test for `C/C(=C\c1ccc(Cl)c(Cl)c1)[N+](=O)[O-]` ?
**A:** false

**Q:** Short answer needed: outcome of this test for `C=C(C)[C@@H]1CC[C@]2(C)CC[C@]3(C)[C@H](CC[C@@H]4[C@@]5(C)CC[C@H](O)C(C)(C)[C@@H]5CC[C@]43C)[C@@H]12` ?
**A:** false

**Q:** Short answer needed: outcome of this test for CC(O)c1ccc[n+](Cc2ccccc2)c1 (centres undefined) ?
**A:** false
